Biological target: Ubiquitin-activating enzyme e1, putative (Leishmania donovani (strain BPK282A1))
Assay: Leishmania donovani Ubiquitin Activating Enzyme (LdE1)
Assay type: functional
Set-up: scale not given: direction of the effect not stated beside the values
Conditions: 30 µM
Results with a measured potency or affinity are listed apart.
Label condition met when Percent Effect >= 10%; otherwise condition not met.

{"Compound": "COCC1c2nnn(CC3CC3)c2CCN1C(=O)c1cccc(F)c1 (configuration not stated)", "Label Value": "condition not met"}
{"Compound": "Cn1c(CN2CCOCC2)nnc1C1CCN(C(=O)C2CCCC2)CC1", "Label Value": "condition met"}
{"Compound": "CCC(C)(NCC(=O)Nc1nc(C)cs1)c1nc(C)cs1 (configuration not stated)", "Label Value": "condition met"}
{"Compound": "CCC(CO)N(Cc1ccccn1)C(=O)c1ccc2c(c1)CCO2 (configuration not stated)", "Label Value": "condition met"}
{"Compound": "CN(Cc1nnc(C2CC2)n1C)C(=O)c1ccnc(OC2CCC2)c1", "Label Value": "condition not met"}
{"Compound": "Cc1ccc(C(CNCc2cnn(C(C)C)c2)N2CCOCC2)s1 (configuration not stated)", "Label Value": "condition not met"}
{"Compound": "CN(Cc1cccc(F)c1)C(=O)CN1CCCC1CCc1ccccc1 (configuration not stated)", "Label Value": "condition not met"}
{"Compound": "CN1CCc2c(C#N)c(NCCCN3CCOCC3)n3cnnc3c2C1", "Label Value": "condition met"}
{"Compound": "CCn1ncc2c1C(COCC1CC1)CN(S(=O)(=O)N(C)C)C2 (configuration not stated)", "Label Value": "condition met"}
{"Compound": "CN(C)CCn1c(=O)oc2ccc(NC(=O)C3CCCO3)cc21 (configuration not stated)", "Label Value": "condition not met"}
{"Compound": "O=C(c1cccc(=O)[nH]1)N(Cc1ccsc1)CC1CCCO1 (configuration not stated)", "Label Value": "condition met"}
{"Compound": "CNC(=O)[C@H]1C[C@@H]2CN(C(=O)c3ccco3)C[C@@H]2N1S(C)(=O)=O", "Label Value": "condition met"}
{"Compound": "CCc1nc(CN2CCN(c3ncnc4cc(F)ccc34)CC2)no1", "Label Value": "condition not met"}
{"Compound": "Cc1ccc2c(c1)CN(C(=O)C1CCCCC1)C(CN(C)C)CO2 (configuration not stated)", "Label Value": "condition met"}
{"Compound": "COc1cc(CNC2CCCc3c2cnn3C)cc(OC)c1 (configuration not stated)", "Label Value": "condition not met"}
{"Compound": "CN(C)c1nccc(N2CCO[C@H]3CN(CC4CCOCC4)C[C@H]32)n1", "Label Value": "condition met"}
{"Compound": "Cc1nc[nH]c1CN1C[C@@H]2CC[C@H](C1)N(C(=O)CCc1cnn(C)c1)C2", "Label Value": "condition not met"}
{"Compound": "Nc1nc(CN2CCCC(Cn3cncn3)C2)nc2ccccc12 (configuration not stated)", "Label Value": "condition not met"}
{"Compound": "CCC1(CC)Cc2ccccc2-c2nc(NCCO)[nH]c(=O)c21", "Label Value": "condition met"}
{"Compound": "CN(C(=O)Cn1nc(-c2ccc(F)cc2)ccc1=O)C1CCS(=O)(=O)C1 (configuration not stated)", "Label Value": "condition met"}
{"Compound": "O=C(c1ccnnc1)N1C[C@@H]2CC[C@H](Oc3cccc(F)c3)[C@@H]2C1", "Label Value": "condition not met"}
{"Compound": "Cn1cnc(S(=O)(=O)NCCCN2CCOCC2)c1Cl", "Label Value": "condition not met"}
